test system: PPARg:RXRa (NR concentration 180 nM, RXRa partner concentration 90 nM); assay: PBM binding z-score (relative to random genomic background probes); higher = stronger binding; sequences stand for … in GC…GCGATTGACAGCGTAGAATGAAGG
# cutoff 0.8 applies to PBM binding z-score; >= gives class 1, < gives class 0

Does GCTTACGGGTAAAAGGTTATAGCATGAATAGAAT have a reported PBM binding z-score of at least 0.8?
class 1

Does AGTCAAAGTTCAGGACGAGGTTACGTAAAGCACG have a reported PBM binding z-score of at least 0.8?
class 1

Does ACAGACAGGTGAGCGAAGGTAACTCAGCTGGACG have a reported PBM binding z-score of at least 0.8?
class 0

Does CGAACGATGGCATGAGTTGATAGCAAATGCCGAT have a reported PBM binding z-score of at least 0.8?
class 0

Does GCTTACGGGTCAAAGGTTATTGCATGAATAGAAT have a reported PBM binding z-score of at least 0.8?
class 1

Does TATACAGGGTCAAAGGCCGGAGTACGAATGTCGA have a reported PBM binding z-score of at least 0.8?
class 1

Does ATCGAAAGGTCCAGGTGAGTATAGAGAAAGGGAA have a reported PBM binding z-score of at least 0.8?
class 0

Does TCATATAGGAAAATGCTAGGTGAAAGTCCGATCT have a reported PBM binding z-score of at least 0.8?
class 0

Does CTCGAAAGGTCGGTTGAGGTGCGTATACGGATAA have a reported PBM binding z-score of at least 0.8?
class 0

Does CCTACTGGGCCAAGGTCCTTGATCAGTCAAAGCA have a reported PBM binding z-score of at least 0.8?
class 1

Does CAAACTAGGTCAAGAGGTTAAAGTCCGCTTCCCG have a reported PBM binding z-score of at least 0.8?
class 1

Does GCTATTAGTCGAAAGGGCAACCGAATGATTCTCG have a reported PBM binding z-score of at least 0.8?
class 1

Does CGAACTAGGTCATCCAGGACAGAGAATACATTGA have a reported PBM binding z-score of at least 0.8?
class 1

Taken from the supplement of paper PMC6555819.
